The reported numbers originate from paper PMC5908784.

# system: hCTR Y372A (Homo sapiens, UniProt P30988, Y372A)
# Construct: c-Myc (N); expressed in transfected cells
# Sequence (P30988 25-474 Y372A): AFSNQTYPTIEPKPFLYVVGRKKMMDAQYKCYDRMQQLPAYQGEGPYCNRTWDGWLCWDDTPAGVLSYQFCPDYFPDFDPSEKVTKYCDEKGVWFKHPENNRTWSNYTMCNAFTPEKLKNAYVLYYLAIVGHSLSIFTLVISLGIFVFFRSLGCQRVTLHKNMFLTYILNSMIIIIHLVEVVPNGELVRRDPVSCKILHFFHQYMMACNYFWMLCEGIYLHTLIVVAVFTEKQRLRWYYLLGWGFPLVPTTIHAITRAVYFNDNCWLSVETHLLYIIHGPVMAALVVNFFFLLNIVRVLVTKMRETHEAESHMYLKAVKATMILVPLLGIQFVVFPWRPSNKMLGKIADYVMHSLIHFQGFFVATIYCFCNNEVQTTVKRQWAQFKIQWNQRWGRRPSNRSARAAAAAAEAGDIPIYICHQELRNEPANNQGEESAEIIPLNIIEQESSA
# assay.comment: Homologous whole cell competition binding
# assay.context: homologous competition of 125I-sCT(8-32), whole cells, mean ± S.E.M., SEM
# Procedure: Homologous radioligand competition was performed on 2.5 × 10^4 cells/well seeded into 96-well trays and cultured overnight. Cells were incubated overnight at 4 °C with two concentrations of ^125I-sCT(8-32) (between 25 and 100 pM; specific activity, 2000 Ci/mmol^9) and serial dilutions of non-iodinated sCT(8-32). Non-bound ligand was removed and bound ligand activity was measured using a γ counter (Wallac Wizard 1470 Gamma Counter, Perkin Elmer, 80% counter efficiency). […]
Where no end group is shown, it is not given here.
property: Ki (nM)

* VLGKLSQELHKLQTYPRTNTGSGTP-NH2 [sCT(8-32)] | 0.141

###

# system: hCTR V357A (Homo sapiens, UniProt P30988, V357A)
# Construct: c-Myc (N); expressed in transfected cells
# Sequence (P30988 25-474 V357A): as the sequence (P30988 25-474 Y372A) above, with V333A, A348Y counted along it
# assay.comment: Homologous whole cell competition binding
# assay.context: homologous competition of 125I-sCT(8-32), whole cells, mean ± S.E.M., SEM
Where no end group is shown, it is not given here.
property: Ki

• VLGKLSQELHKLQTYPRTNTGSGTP-NH2 [sCT(8-32)] = 209 pM

###

# system: hCTR S292A (Homo sapiens, UniProt P30988, S292A)
# Construct: expressed in transfected cells
# Sequence (P30988 25-474 S292A): as the sequence (P30988 25-474 Y372A) above, with S268A, A348Y counted along it
# assay.comment: Homologous whole cell competition binding
# assay.context: homologous competition of 125I-sCT(8-32), whole cells, mean ± S.E.M., SEM
Where no end group is shown, it is not given here.
property: Ki

• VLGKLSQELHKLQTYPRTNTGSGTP-NH2 [sCT(8-32)] = 0.0631 nM

###

# system: hCTR R281A (Homo sapiens, UniProt P30988, R281A)
# Construct: expressed in transfected cells
# Sequence (P30988 25-474 R281A): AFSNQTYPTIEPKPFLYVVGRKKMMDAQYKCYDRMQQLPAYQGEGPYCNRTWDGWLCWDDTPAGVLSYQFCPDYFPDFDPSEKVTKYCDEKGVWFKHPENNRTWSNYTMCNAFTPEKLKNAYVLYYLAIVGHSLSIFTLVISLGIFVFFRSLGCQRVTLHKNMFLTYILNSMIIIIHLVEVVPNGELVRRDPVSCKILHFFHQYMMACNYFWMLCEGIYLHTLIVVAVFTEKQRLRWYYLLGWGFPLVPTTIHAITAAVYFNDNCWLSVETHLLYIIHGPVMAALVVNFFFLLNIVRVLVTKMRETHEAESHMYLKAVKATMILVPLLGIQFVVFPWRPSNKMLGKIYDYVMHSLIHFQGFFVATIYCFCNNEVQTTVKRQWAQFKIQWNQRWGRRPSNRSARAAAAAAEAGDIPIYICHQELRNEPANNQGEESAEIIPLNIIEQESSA
# assay.comment: Homologous whole cell competition binding
# assay.context: homologous competition of 125I-sCT(8-32), whole cells, mean ± S.E.M., SEM
Where no end group is shown, it is not given here.
property: Ki (nM)

• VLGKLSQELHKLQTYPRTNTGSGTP-NH2 [sCT(8-32)] = 0.851
